Values from patent US5990094A

Molecular target: GST-AANAT (Ovis aries, UniProt Q29495)
Construct: The entire open reading frame of the DNA encoding sheep AANAT in the plasmid vector pET15b; made in house; host or cells: Escherichia coli BL21(DE3)pLysS
Sequence (Q29495 other isoform, or with tags, fused parts or gaps): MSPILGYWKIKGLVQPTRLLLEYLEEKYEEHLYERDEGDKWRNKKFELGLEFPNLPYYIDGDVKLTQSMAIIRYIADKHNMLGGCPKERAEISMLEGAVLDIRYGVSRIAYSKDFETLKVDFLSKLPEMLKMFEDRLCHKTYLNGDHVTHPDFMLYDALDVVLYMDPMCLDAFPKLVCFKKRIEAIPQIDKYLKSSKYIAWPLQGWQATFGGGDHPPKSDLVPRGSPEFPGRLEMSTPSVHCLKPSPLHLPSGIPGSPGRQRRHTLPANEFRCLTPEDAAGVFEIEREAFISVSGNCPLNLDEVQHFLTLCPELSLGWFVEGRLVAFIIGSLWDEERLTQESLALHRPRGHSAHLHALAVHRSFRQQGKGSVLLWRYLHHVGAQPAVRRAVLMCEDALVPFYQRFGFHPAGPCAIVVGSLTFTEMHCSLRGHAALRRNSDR
Assay: Kinetic measurements with inhibitors of GST-AANAT
Format: biochemical, sheep
Conditions: varied substrate tryptamine; acetyl-CoA 1 mM; read-out: Ksi
value.kind: Ki (µM)
One number for each entry, in µM.

Sample CC(=O)NCCc1c[nH]c2ccccc12 ; Ki observed: 916

====

Target: GST-AANAT (Ovis aries, UniProt Q29495)
Construct: The entire open reading frame of the DNA encoding sheep AANAT in the plasmid vector pET15b; made in house; host or cells: Escherichia coli BL21(DE3)pLysS
Experiment: Kinetic measurements with inhibitors of GST-AANAT
Format: biochemical, sheep
Details: varied substrate tryptamine; acetyl-CoA 0.2 mM; read-out: Kis
Protocol: DTNB Product Detection Assay This assay is based on the detection of CoASH generated during acetyl transfer by reaction with the thiol reagent DTNB (19). […] These mixtures were treated with 0.1 ml of DTNB (2 mM, 0.1 M sodium phosphate, pH 6.8, 10 mM EDTA), vortexed, and allowed to stand for 5 min before absorbance readings were performed at 412 nm (thiophenolate-quantified assuming ε=13.7×10^3 M^-1 cm^-1) (19). […]
value.kind: pKi
Give bare numbers, as −log10 of the molar value.

Sample CCNC(=O)CCNC(=O)[C@H](O)C(C)(C)COP(=O)(O)OP(=O)(O)OC[C@H]1O[C@@H](n2cnc3c(N)ncnc32)[C@H](O)[C@@H]1OP(=O)(O)O ; pKi observed: 2.87

====

Target: GST-AANAT (Ovis aries, UniProt Q29495)
Construct: The entire open reading frame of the DNA encoding sheep AANAT in the plasmid vector pET15b; made in house; host or cells: Escherichia coli BL21(DE3)pLysS
Assay: Kinetic measurements with inhibitors of GST-AANAT
Format: biochemical, sheep
Conditions: quoted in discussion; read-out: K1
value.kind: Ki (µM)
Numbers only, in µM.

Sample CCNC(=O)CCNC(=O)[C@H](O)C(C)(C)COP(=O)(O)OP(=O)(O)OC[C@H]1O[C@@H](n2cnc3c(N)ncnc32)[C@H](O)[C@@H]1OP(=O)(O)O ; Ki observed: 1000

====

Biological target: GST-AANAT (Ovis aries, UniProt Q29495)
Construct: The entire open reading frame of the DNA encoding sheep AANAT in the plasmid vector pET15b; made in house; host or cells: Escherichia coli BL21(DE3)pLysS
Experiment: Two-substrate steady state kinetics with GST-AANAT
Format: biochemical, sheep
Conditions: read-out: dissociation constant (Kd)
value.kind: pKd
One number for each entry, as −log10 of the molar value.

Sample CC(=O)SCCNC(=O)CCNC(=O)[C@H](O)C(C)(C)COP(=O)(O)OP(=O)(O)OC[C@H]1O[C@@H](n2cnc3c(N)ncnc32)[C@H](O)[C@@H]1OP(=O)(O)O ; pKd observed: 3.29
